meta.source: patent US20130089513A1

Entries annotated with measured EC50 (read off the curve)
# experimental-system: T1, G-CSF receptor linked to Fc domain of human IgG (human, UniProt Q99062 25-627, limits assumed)
# T1 sequence (looked up): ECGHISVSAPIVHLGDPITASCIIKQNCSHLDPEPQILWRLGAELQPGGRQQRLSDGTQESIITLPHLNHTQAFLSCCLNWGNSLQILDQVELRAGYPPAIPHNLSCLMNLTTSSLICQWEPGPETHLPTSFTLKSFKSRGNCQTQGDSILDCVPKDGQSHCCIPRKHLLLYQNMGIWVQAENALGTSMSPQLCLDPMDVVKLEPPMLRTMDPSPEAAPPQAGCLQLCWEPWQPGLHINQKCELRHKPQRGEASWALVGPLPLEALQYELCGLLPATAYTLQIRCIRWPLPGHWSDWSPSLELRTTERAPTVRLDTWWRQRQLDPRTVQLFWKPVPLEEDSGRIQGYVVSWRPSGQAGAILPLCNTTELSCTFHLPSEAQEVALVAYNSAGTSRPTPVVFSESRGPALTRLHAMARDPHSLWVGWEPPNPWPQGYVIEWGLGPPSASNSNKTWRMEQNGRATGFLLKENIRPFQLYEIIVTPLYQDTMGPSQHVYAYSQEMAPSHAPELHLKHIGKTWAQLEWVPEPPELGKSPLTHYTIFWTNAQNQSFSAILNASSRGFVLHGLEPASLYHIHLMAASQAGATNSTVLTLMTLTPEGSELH
# method-summary: ELISA on coated G-CSF receptor-Fc, done like the TPO ELISA

In the examples that follow, each entry is paired with its recorded EC50 (read off the curve).
binder	measured-attribute	assay-result
G-CSF F13V (ligand, used as CHO-K1 culture supernatant) cytokine chain: TPLGPASSLPQSVLLKCLEQVRKIQGDGAALQEKLCATYKLCHPEELVLLGHSLGIPWAPLSSCPSQALQLAGCLSQLHSGLFLYQGLLQALEGISPELGPTLDTLQLDVADFATTIWQQMEELGMAPALQPTQGAMPAFASAFQRRAGGVLVASHLQSFLEVSYRVLRHLAQP	EC50 (read off the curve)	~0.03 µg/mL
G-CSF F113V (ligand, used as CHO-K1 culture supernatant) cytokine chain: TPLGPASSLPQSFLLKCLEQVRKIQGDGAALQEKLCATYKLCHPEELVLLGHSLGIPWAPLSSCPSQALQLAGCLSQLHSGLFLYQGLLQALEGISPELGPTLDTLQLDVADVATTIWQQMEELGMAPALQPTQGAMPAFASAFQRRAGGVLVASHLQSFLEVSYRVLRHLAQP	EC50 (read off the curve)	~0.06 µg/mL
G-CSF-[F140V] (ligand, G-CSF mutein expressed in CHO-K1 cells; also called G-CSF-[F140VD]) TPLGPASSLPQSFLLKCLEQVRKIQGDGAALQEKLCATYKLCHPEELVLLGHSLGIPWAPLSSCPSQALQLAGCLSQLHSGLFLYQGLLQALEGISPELGPTLDTLQLDVADFATTIWQQMEELGMAPALQPTQGAMPAVASAFQRRAGGVLVASHLQSFLEVSYRVLRHLAQP	EC50 (read off the curve)	~0.06 µg/mL
G-CSF-[F160V] (ligand, G-CSF mutein expressed in CHO-K1 cells) TPLGPASSLPQSFLLKCLEQVRKIQGDGAALQEKLCATYKLCHPEELVLLGHSLGIPWAPLSSCPSQALQLAGCLSQLHSGLFLYQGLLQALEGISPELGPTLDTLQLDVADFATTIWQQMEELGMAPALQPTQGAMPAFASAFQRRAGGVLVASHLQSVLEVSYRVLRHLAQP	EC50 (read off the curve)	~0.04 µg/mL

# query: EC50 (read off the curve) of entry wild type G-CSF (ligand, cDNA from leukocytes of healthy people; expressed in CHO-K1 cells; also called G-CSF wild type) TPLGPASSLPQSFLLKCLEQVRKIQGDGAALQEKLCATYKLCHPEELVLLGHSLGIPWAPLSSCPSQALQLAGCLSQLHSGLFLYQGLLQALEGISPELGPTLDTLQLDVADFATTIWQQMEELGMAPALQPTQGAMPAFASAFQRRAGGVLVASHLQSFLEVSYRVLRHLAQP
~0.04 µg/mL
